Test system: johnsongrass (Sorghum halepense)
Assay: Test C pre-/postemergence: johnsongrass
Format: in vivo
Settings: Preemergence, 31 g ai/ha; scale of 0 to 100, 0 is no effect, 100 is complete control
Measured Plant response rating, Johnsongrass of individual entries
Just the number, please, no unit after it.

Example cases with answers are listed next.
Cc1nn(-c2ccc(F)c(F)c2)nc1Oc1ccnc(C(F)(F)F)c1 ... 0
Cc1nn(-c2ccc(F)c(C(F)(F)F)c2)nc1Oc1ccnc(C(F)(F)F)c1 ... 40
CCCc1nn(-c2ccc(F)cc2)nc1Cc1ccnc(C(F)(F)F)c1 ... 90

In plain terms, Cc1nn(-c2ccc(C(F)(F)F)c(F)c2)nc1Cc1ccnc(C(F)(F)F)c1 has a documented Plant response rating, Johnsongrass of 35

---

Test system: blackgrass (Alopecurus myosuroides)
Test: Test C pre-/postemergence: blackgrass
Type: in vivo
Conditions: Postemergence, 62 g ai/ha; scale 0 to 100 (0 no effect, 100 complete control)
The following compounds are shown together with reported Plant response rating, Blackgrass values.
Number only, no unit.

The observed Plant response rating, Blackgrass for CCCc1nn(-c2ccc(C(F)(F)F)c(F)c2)nc1Oc1ccnc(C(F)(F)F)c1 when tested with blackgrass (Alopecurus myosuroides) stands at 40

For Cc1nn(-c2ccc(F)c(F)c2)nc1Oc1ccnc(C(F)(F)F)c1 on blackgrass (Alopecurus myosuroides), measured Plant response rating, Blackgrass was 60

# Plant response rating, Blackgrass measured on blackgrass (Alopecurus myosuroides) for item Cc1nn(-c2ccc(C(F)(F)F)c(F)c2)nc1Cc1ccnc(C(F)(F)F)c1 = 80

Entry Cc1nn(-c2ccc(C(F)(F)F)cc2)nc1Cc1cccc(C(F)(F)F)c1 , blackgrass (Alopecurus myosuroides) data, Plant response rating, Blackgrass value: 50

---

Test system: morningglory (Ipomoea spp.)
Assay: Test A pre-/postemergence: morningglory
Type: in vivo
Conditions: Preemergence, 125 g ai/ha; 0 to 100 scale (0 no effect, 100 complete control)
Measured metric: Plant response rating, Morningglory
Could you respond with only the numeric value?

Consider the worked cases shown below.
Cc1nn(-c2ccc(C(F)(F)F)nc2)nc1C(=O)c1cccc(C(F)(F)F)c1 ... 0
Cc1nn(-c2ccccc2Cl)nc1C(=O)c1cccc(C(F)(F)F)c1 ... 0
Cc1nn(-c2ccc(C(F)(F)F)cc2)nc1Oc1cnn(CC(F)(F)F)c1 ... 0

Recorded Plant response rating, Morningglory (compound Cc1nn(-c2cncc(C(F)(F)F)c2)nc1C(=O)c1cccc(C(F)(F)F)c1 ): 0

---

Tested on: bermudagrass (Cynodon dactylon)
Test: Test C pre-/postemergence: bermudagrass
Type: in vivo
Settings: Postemergence, 31 g ai/ha; scale 0 to 100 (0 no effect, 100 complete control)
Measured metric: Plant response rating, Bermudagrass
Keep it simple and answer with nothing but the number.

Examples with their reported Plant response rating, Bermudagrass follow.
Cc1nn(-c2ccc(C(F)(F)F)cc2)nc1Cc1cccc(C(F)(F)F)c1 [Compound 124] ... 25
Cc1nn(-c2ccc(F)c(F)c2)nc1Oc1ccnc(C(F)(F)F)c1 [Compound 145] ... 10
Cc1nn(-c2ccc(F)cc2)nc1Oc1ccnc(C(F)(F)F)c1 [Compound 129] ... 40

Consider the additional molecule presented here.
Sure, the documented Plant response rating, Bermudagrass for Cc1nn(-c2ccc(F)cc2)nc1Cc1ccnc(C(F)(F)F)c1 [Compound 16] is 5
